Tested on: Canis familiaris
Experimental Details: Cmax in beagle dog treated with [14C]casopitant mesylate at 40 mg/kg/day, po administered as repeat dose measured after 26 weeks by HPLC-MS/MS method
Assay type: ADME, organism-based, Canis lupus familiaris
Parameters: dose 40 mg/kg/day, dosed compound name [14C]Casopitant, route oral
Condition Notes: in vivo, 4368 h

>  <Smiles Input>
Cc1cc(F)ccc1[C@H]1C[C@@H](N2CCNCC2)CCN1C(=O)N(C)[C@H](C)c1cc(C(F)(F)F)cc(C(F)(F)F)c1

>  <System Tested>
Canis familiaris

>  <Units Label>
ng/mL

>  <Cmax>
82

$$$$
>  <Smiles Input>
Cc1cc(F)ccc1[C@H]1C[C@@H](N2CCNC(=O)C2)CCN1C(=O)N(C)[C@H](C)c1cc(C(F)(F)F)cc(C(F)(F)F)c1

>  <System Tested>
Canis familiaris

>  <Units Label>
ng/mL

>  <Cmax>
1013

$$$$
>  <Smiles Input>
Cc1cc(F)ccc1[C@H]1C[C@@H](N)CCN1C(=O)N(C)[C@H](C)c1cc(C(F)(F)F)cc(C(F)(F)F)c1

>  <System Tested>
Canis familiaris

>  <Units Label>
ng/mL

>  <Cmax>
1044

$$$$
>  <Smiles Input>
Cc1cc(F)ccc1[C@H]1C[C@@H](NCCN)CCN1C(=O)N(C)[C@H](C)c1cc(C(F)(F)F)cc(C(F)(F)F)c1

>  <System Tested>
Canis familiaris

>  <Units Label>
ng/mL

>  <Cmax>
65.5

$$$$

====

Listed below: Compound recovery values for each entry.
Experimental Details: Drug level in skeletal muscle of beagle dog treated with [14C]casopitant mesylate at 40 mg/kg/day, po administered as repeat dose measured after 24 hrs on day 14 by HPLC-MS/MS method relative to [14C]casopitant mesylate radioactivity
Type: ADME, organism-based, Canis lupus familiaris, Muscle tissue
Design: dosed compound name [14C]Casopitant, route oral
Condition Notes: in vivo

>  <Compound>
Cc1cc(F)ccc1[C@H]1C[C@@H](N2CCNC(=O)C2)CCN1C(=O)N(C)[C@H](C)c1cc(C(F)(F)F)cc(C(F)(F)F)c1

>  <Compound recovery [%]>
3.5

$$$$
>  <Compound>
CC(=O)N1CCN([C@H]2CCN(C(=O)N(C)[C@H](C)c3cc(C(F)(F)F)cc(C(F)(F)F)c3)[C@@H](c3ccc(F)cc3C)C2)CC1=O

>  <Compound recovery [%]>
1.3

$$$$
>  <Compound>
CC(=O)N1CCN([C@H]2CCN(C(=O)N(C)[C@H](C)c3cc(C(F)(F)F)cc(C(F)(F)F)c3)[C@@H](c3ccc(F)cc3C)C2)CC1O (stereo partly drawn)

>  <Compound recovery [%]>
4.2

$$$$

====

Experimental Details: Drug level in kidney of beagle dog treated with [14C]casopitant mesylate at 40 mg/kg/day, po administered as repeat dose measured after 24 hrs on day 14 by HPLC-MS/MS method relative to [14C]casopitant mesylate radioactivity
Type: ADME, organism-based, Canis lupus familiaris
Parameters: dosed compound name [14C]Casopitant, route oral
Condition Notes: in vivo

>  <Molecule>
CC(=O)N1CCN([C@H]2CCN(C(=O)N(C)[C@H](C)c3cc(C(F)(F)F)cc(C(F)(F)F)c3)[C@@H](c3ccc(F)cc3C)C2)CC1=O

>  <Units Label>
%

>  <Compound recovery>
1.1

$$$$
>  <Molecule>
Cc1cc(F)ccc1[C@H]1C[C@@H](NCCN)CCN1C(=O)N(C)[C@H](C)c1cc(C(F)(F)F)cc(C(F)(F)F)c1

>  <Units Label>
%

>  <Compound recovery>
4.8

$$$$
>  <Molecule>
CC(=O)N1CCN([C@H]2CCN(C(=O)N(C)[C@H](C)c3cc(C(F)(F)F)cc(C(F)(F)F)c3)[C@@H](c3ccc(F)cc3C)C2)CC1O (some centres not stated)

>  <Units Label>
%

>  <Compound recovery>
2.9

$$$$
>  <Molecule>
Cc1cc(F)ccc1[C@H]1C[C@@H](N2CCNCC2)CCN1C(=O)N(C)[C@H](C)c1cc(C(F)(F)F)cc(C(F)(F)F)c1

>  <Units Label>
%

>  <Compound recovery>
7

$$$$
>  <Molecule>
CC(=O)N1CCN([C@H]2CCN(C(=O)N(C)[C@H](C)c3cc(C(F)(F)F)cc(C(F)(F)F)c3)[C@@H](c3ccc(F)cc3C)C2)CC1.CS(=O)(=O)O [CASOPITANT MESYLATE]

>  <Units Label>
%

>  <Compound recovery>
7

$$$$
>  <Molecule>
Cc1cc(F)ccc1[C@H]1C[C@@H](N2CCNC(=O)C2)CCN1C(=O)N(C)[C@H](C)c1cc(C(F)(F)F)cc(C(F)(F)F)c1

>  <Units Label>
%

>  <Compound recovery>
2.2

$$$$

====

Compound recovery values by entry
Experimental Details: Drug level in lung of beagle dog treated with [14C]casopitant mesylate at 40 mg/kg/day, po administered as repeat dose measured after 24 hrs on day 14 by HPLC-MS/MS method relative to [14C]casopitant mesylate radioactivity
Assay type: ADME, organism-based, Canis lupus familiaris
Parameters: dosed compound name [14C]Casopitant, route oral
Condition Notes: in vivo

>  <Compound>
Cc1cc(F)ccc1[C@H]1C[C@@H](N2CCNCC2)CCN1C(=O)N(C)[C@H](C)c1cc(C(F)(F)F)cc(C(F)(F)F)c1

>  <Compound recovery (%)>
11.9

$$$$
>  <Compound>
Cc1cc(F)ccc1[C@H]1C[C@@H](N2CCNC(=O)C2)CCN1C(=O)N(C)[C@H](C)c1cc(C(F)(F)F)cc(C(F)(F)F)c1

>  <Compound recovery (%)>
1.2

$$$$
>  <Compound>
CC(=O)N1CCN([C@H]2CCN(C(=O)N(C)[C@H](C)c3cc(C(F)(F)F)cc(C(F)(F)F)c3)[C@@H](c3ccc(F)cc3C)C2)CC1.CS(=O)(=O)O [CASOPITANT MESYLATE]

>  <Compound recovery (%)>
11.9

$$$$

====

Experimental Details: Drug level in skeletal muscle of beagle dog treated with [14C]casopitant mesylate at 40 mg/kg/day, po administered as repeat dose measured after 24 hrs on day 14 by HPLC-MS/MS method relative to [14C]casopitant mesylate radioactivity
Format: ADME, organism-based, Canis lupus familiaris, Muscle tissue
Set-up: dosed compound name [14C]Casopitant, route oral
Condition Notes: in vivo
As shown below, each of these molecules has a reported Compound recovery value.

>  <Molecule>
Cc1cc(F)ccc1[C@H]1C[C@@H](NCCN)CCN1C(=O)N(C)[C@H](C)c1cc(C(F)(F)F)cc(C(F)(F)F)c1

>  <Compound recovery (%)>
2.4

$$$$
>  <Molecule>
CC(=O)N1CCN([C@H]2CCN(C(=O)N(C)[C@H](C)c3cc(C(F)(F)F)cc(C(F)(F)F)c3)[C@@H](c3ccc(F)cc3C)C2)CC1.CS(=O)(=O)O [CASOPITANT MESYLATE]

>  <Compound recovery (%)>
2.4

$$$$
>  <Molecule>
Cc1cc(F)ccc1[C@H]1C[C@@H](N2CCNCC2)CCN1C(=O)N(C)[C@H](C)c1cc(C(F)(F)F)cc(C(F)(F)F)c1

>  <Compound recovery (%)>
7.6

$$$$

====

Recorded Drug concentration in myocardium by entry
Experimental Details: Drug level in myocardium of beagle dog treated with [14C]casopitant mesylate at 40 mg/kg/day, po administered as repeat dose measured after 22 weeks post dosing withdrawal by HPLC-MS/MS method
Type: ADME, organism-based, Canis lupus familiaris
Set-up: dosed compound name [14C]Casopitant, route oral
Condition Notes: in vivo, 3696 h

>  <Compound>
Cc1cc(F)ccc1[C@H]1C[C@@H](N2CCNC(=O)C2)CCN1C(=O)N(C)[C@H](C)c1cc(C(F)(F)F)cc(C(F)(F)F)c1

>  <Drug concentration in myocardium>
< 50 ng/g

$$$$
>  <Compound>
Cc1cc(F)ccc1[C@H]1C[C@@H](N)CCN1C(=O)N(C)[C@H](C)c1cc(C(F)(F)F)cc(C(F)(F)F)c1

>  <Drug concentration in myocardium>
408 ng/g

$$$$
>  <Compound>
CC(=O)N1CCN([C@H]2CCN(C(=O)N(C)[C@H](C)c3cc(C(F)(F)F)cc(C(F)(F)F)c3)[C@@H](c3ccc(F)cc3C)C2)CC1.CS(=O)(=O)O [CASOPITANT MESYLATE]

>  <Drug concentration in myocardium>
< 50 ng/g

$$$$
>  <Compound>
CC(=O)NCCN[C@H]1CCN(C(=O)N(C)[C@H](C)c2cc(C(F)(F)F)cc(C(F)(F)F)c2)[C@@H](c2ccc(F)cc2C)C1

>  <Drug concentration in myocardium>
< 50 ng/g

$$$$
>  <Compound>
CC(=O)N1CCN([C@H]2CCN(C(=O)N(C)[C@H](C)c3cc(C(F)(F)F)cc(C(F)(F)F)c3)[C@@H](c3ccc(F)cc3C)C2)CC1O (some centres not stated)

>  <Drug concentration in myocardium>
< 50 ng/g

$$$$
>  <Compound>
Cc1cc(F)ccc1[C@H]1C[C@@H](N2CCNCC2)CCN1C(=O)N(C)[C@H](C)c1cc(C(F)(F)F)cc(C(F)(F)F)c1

>  <Drug concentration in myocardium>
< 50 ng/g

$$$$
>  <Compound>
Cc1cc(F)ccc1[C@H]1C[C@@H](NCCN)CCN1C(=O)N(C)[C@H](C)c1cc(C(F)(F)F)cc(C(F)(F)F)c1

>  <Drug concentration in myocardium>
31732 ng/g

$$$$
